tested.system: Hepatitis C Virus NS3/4A protease A156T (Hepatitis C virus genotype 1b, UniProt O92972, A1182T)
protocol.text: biochemical
pEC50: −log10 of the molar value.
metric.name: pEC50

1. C=C[C@@H]1C[C@]1(NC(=O)[C@@H]1C[C@@H](OC(=O)N2Cc3cccc(F)c3C2)CN1C(=O)[C@@H](NC(=O)OC(C)(C)C)C(C)(C)C)C(=O)NS(=O)(=O)C1CC1 | 7.48

* * *

Tested on: cellular rRNA (cytotoxicity marker)
protocol.text: HCV replicon assay, cytotoxicity by rRNA
Assay type: cell-based
test.context: human, Huh 7 Clone B cells containing HCV replicon RNA; rRNA, Huh 7 Clone B cells
Method: Huh 7 Clone B cells containing HCV replicon RNA would be seeded in a 96-well plate at 5000 cells/well, and the compounds tested at 10 μM in triplicate immediately after seeding. […] The antiviral effectiveness of the compounds was calculated by subtracting the threshold RT-PCR cycle of the test compound from the threshold RT-PCR cycle of the no-drug control (ΔCt HCV). […] The cytotoxicity of the compounds was also calculated by using the ΔCt rRNA values. […]
metric.name: CC50 at 5 days

1. C=C[C@@H]1C[C@]1(NC(=O)[C@@H]1C[C@@H](OC(=O)N2Cc3cccc(F)c3C2)CN1C(=O)[C@@H](NC(=O)OC(C)(C)C)C(C)(C)C)C(=O)NS(=O)(=O)C1CC1 | > 300 nM

* * *

tested.system: Cathepsin S (Homo sapiens)
metric.name: IC50

1. C=C[C@@H]1C[C@]1(NC(=O)[C@@H]1C[C@@H](OC(=O)N2Cc3cccc(F)c3C2)CN1C(=O)[C@@H](NC(=O)OC(C)(C)C)C(C)(C)C)C(=O)NS(=O)(=O)C1CC1 | > 100 µM

* * *

tested.system: Cathepsin G (Homo sapiens)
Sequence (P08311 21-244): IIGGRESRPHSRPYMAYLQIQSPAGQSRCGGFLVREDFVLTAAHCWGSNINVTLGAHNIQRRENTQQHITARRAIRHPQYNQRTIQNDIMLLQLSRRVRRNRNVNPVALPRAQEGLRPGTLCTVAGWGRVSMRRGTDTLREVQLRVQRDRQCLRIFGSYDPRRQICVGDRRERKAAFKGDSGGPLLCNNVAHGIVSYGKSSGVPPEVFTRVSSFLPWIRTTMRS
metric.name: IC50

1) C=C[C@@H]1C[C@]1(NC(=O)[C@@H]1C[C@@H](OC(=O)N2Cc3cccc(F)c3C2)CN1C(=O)[C@@H](NC(=O)OC(C)(C)C)C(C)(C)C)C(=O)NS(=O)(=O)C1CC1 [Compound 10] | > 100 µM

* * *

tested.system: Hepatitis C Virus NS3/4A protease Wild Type (Hepatitis C virus genotype 1b, UniProt O92972)
protocol.text: HCV NS3/4A protease FRET assay, wild type
test.context: read-out: Anti-HCV protease activity EC50
pEC50: −log10 of the molar value.
metric.name: pEC50

1. C=C[C@@H]1C[C@]1(NC(=O)[C@@H]1C[C@@H](OC(=O)N2Cc3cccc(F)c3C2)CN1C(=O)[C@@H](NC(=O)OC(C)(C)C)C(C)(C)C)C(=O)NS(=O)(=O)C1CC1 [Compound 10] | 8.31

* * *

tested.system: Hepatitis C Virus NS3/4A protease V170A (UniProt Q9WMX2, V1196A, species not given)
Construct: other: V170A; Anti-HCV protease activity EC90
test.context: read-out: Anti-HCV protease activity EC50; V170A
metric.name: EC50

1) C=C[C@@H]1C[C@]1(NC(=O)[C@@H]1C[C@@H](OC(=O)N2Cc3cccc(F)c3C2)CN1C(=O)[C@@H](NC(=O)OC(C)(C)C)C(C)(C)C)C(=O)NS(=O)(=O)C1CC1 | 5.5 nM

The reported measurements were obtained from patent US8729014B2.
